# measured target: ZAK (Homo sapiens, UniProt Q9NYL2)
# Sequence (Q9NYL2 whole entry): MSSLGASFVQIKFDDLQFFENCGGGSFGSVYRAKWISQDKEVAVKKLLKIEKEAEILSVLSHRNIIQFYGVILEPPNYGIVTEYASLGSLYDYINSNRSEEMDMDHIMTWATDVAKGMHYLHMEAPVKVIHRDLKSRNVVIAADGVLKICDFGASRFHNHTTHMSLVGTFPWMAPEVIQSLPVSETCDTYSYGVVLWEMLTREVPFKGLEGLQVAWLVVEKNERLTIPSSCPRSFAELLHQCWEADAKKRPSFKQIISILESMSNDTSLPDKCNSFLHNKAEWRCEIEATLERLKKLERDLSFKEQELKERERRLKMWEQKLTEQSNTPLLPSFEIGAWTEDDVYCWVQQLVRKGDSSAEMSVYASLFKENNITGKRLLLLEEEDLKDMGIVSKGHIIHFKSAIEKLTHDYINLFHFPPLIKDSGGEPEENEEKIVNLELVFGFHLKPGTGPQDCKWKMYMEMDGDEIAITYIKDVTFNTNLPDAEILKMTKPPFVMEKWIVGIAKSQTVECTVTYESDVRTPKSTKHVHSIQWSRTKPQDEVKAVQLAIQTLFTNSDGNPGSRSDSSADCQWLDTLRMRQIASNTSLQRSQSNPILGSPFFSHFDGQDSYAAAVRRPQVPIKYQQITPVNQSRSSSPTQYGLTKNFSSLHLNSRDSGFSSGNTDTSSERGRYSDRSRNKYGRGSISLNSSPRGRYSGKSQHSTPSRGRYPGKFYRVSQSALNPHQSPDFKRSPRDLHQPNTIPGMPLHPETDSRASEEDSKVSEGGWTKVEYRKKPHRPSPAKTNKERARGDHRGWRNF
property measured: IC50

INSERT INTO measurements (compound, measured_target, measured_value) VALUES
  ('CCc1nc(C(N)=O)c(Nc2ccc(N3CCC(Nc4ccccc4)CC3)c(OC)c2)nc1NC1CCOC(C(O)CO)C1 (stereo not shown)', 'ZAK (Homo sapiens, UniProt Q9NYL2)', '> 10 µM');

---

# measured target: UniProt:P08631
# Sequence (P08631 whole entry): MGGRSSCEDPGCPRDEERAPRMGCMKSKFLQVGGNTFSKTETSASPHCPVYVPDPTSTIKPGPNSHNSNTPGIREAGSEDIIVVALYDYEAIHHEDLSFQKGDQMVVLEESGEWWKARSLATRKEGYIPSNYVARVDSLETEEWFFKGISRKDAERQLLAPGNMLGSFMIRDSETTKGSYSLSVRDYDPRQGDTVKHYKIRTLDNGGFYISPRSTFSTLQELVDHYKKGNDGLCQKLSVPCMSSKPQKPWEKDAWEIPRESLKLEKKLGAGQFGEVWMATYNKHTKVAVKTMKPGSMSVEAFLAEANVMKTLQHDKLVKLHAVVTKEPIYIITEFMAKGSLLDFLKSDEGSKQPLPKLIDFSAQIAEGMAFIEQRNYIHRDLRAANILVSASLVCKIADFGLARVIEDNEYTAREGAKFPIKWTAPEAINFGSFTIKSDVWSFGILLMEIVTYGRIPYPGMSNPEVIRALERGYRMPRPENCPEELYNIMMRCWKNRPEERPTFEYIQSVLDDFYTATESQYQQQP
pIC50: −log10 of the molar value.
property measured: pIC50

INSERT INTO measurements (molecule, measured_value) VALUES
  ('CCc1nc(C(N)=O)c(Nc2ccc(N3CCC(Nc4ccccc4)CC3)c(OC)c2)nc1NC1CCOC(C(O)CO)C1 (stereo not shown) [FLIN-4]', '< 5.00');

---

# measured target: INSRR (Homo sapiens, UniProt P14616)
# Sequence (P14616 27-1297): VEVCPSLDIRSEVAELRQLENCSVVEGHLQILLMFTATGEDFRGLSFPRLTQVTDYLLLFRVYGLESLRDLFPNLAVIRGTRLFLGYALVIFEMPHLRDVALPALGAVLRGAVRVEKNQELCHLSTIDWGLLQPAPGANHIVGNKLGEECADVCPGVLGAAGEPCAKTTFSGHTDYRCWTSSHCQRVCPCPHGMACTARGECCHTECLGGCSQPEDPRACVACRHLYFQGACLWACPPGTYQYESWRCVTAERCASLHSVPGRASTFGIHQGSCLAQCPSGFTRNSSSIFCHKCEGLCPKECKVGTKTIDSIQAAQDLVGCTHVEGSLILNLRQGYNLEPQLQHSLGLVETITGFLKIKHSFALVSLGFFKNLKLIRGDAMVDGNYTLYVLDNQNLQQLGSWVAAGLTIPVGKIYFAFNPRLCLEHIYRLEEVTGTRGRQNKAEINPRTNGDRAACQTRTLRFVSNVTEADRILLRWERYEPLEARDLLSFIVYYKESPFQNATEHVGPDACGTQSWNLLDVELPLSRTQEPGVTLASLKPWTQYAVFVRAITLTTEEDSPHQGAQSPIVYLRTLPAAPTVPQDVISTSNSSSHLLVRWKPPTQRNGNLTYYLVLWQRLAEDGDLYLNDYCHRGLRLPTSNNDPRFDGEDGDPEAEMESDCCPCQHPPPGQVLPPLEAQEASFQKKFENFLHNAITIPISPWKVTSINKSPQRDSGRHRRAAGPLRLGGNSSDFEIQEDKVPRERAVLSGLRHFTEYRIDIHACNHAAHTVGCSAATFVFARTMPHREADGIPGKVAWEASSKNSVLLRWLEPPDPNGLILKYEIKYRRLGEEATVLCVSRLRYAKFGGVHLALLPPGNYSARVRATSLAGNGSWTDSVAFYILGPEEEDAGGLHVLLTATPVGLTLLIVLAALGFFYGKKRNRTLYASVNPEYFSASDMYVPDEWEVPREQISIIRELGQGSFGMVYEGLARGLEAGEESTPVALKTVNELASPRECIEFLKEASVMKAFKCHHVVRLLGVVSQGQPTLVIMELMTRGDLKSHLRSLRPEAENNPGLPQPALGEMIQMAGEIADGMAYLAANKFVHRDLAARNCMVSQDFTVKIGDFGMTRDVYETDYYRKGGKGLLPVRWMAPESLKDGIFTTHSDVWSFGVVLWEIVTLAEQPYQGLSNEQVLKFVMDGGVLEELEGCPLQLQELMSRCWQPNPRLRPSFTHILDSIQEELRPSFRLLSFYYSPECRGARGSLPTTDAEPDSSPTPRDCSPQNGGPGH
# assay details: SelectScreen kinase selectivity assay
# Format: biochemical
# run conditions: ten-dose 0.25–128 μM
property measured: IC50

INSERT INTO assay_data (molecule, measured_target, property_measured, measured_value) VALUES
  ('CCc1nc(C(N)=O)c(Nc2ccc(N3CCC(Nc4ccccc4)CC3)c(OC)c2)nc1NC1CCOC(C(O)CO)C1 (stereo not shown)', 'INSRR (Homo sapiens, UniProt P14616)', 'IC50', '> 10 µM');

---

# measured target: EPHA4 (Homo sapiens, UniProt P54764)
# Sequence (P54764 20-986): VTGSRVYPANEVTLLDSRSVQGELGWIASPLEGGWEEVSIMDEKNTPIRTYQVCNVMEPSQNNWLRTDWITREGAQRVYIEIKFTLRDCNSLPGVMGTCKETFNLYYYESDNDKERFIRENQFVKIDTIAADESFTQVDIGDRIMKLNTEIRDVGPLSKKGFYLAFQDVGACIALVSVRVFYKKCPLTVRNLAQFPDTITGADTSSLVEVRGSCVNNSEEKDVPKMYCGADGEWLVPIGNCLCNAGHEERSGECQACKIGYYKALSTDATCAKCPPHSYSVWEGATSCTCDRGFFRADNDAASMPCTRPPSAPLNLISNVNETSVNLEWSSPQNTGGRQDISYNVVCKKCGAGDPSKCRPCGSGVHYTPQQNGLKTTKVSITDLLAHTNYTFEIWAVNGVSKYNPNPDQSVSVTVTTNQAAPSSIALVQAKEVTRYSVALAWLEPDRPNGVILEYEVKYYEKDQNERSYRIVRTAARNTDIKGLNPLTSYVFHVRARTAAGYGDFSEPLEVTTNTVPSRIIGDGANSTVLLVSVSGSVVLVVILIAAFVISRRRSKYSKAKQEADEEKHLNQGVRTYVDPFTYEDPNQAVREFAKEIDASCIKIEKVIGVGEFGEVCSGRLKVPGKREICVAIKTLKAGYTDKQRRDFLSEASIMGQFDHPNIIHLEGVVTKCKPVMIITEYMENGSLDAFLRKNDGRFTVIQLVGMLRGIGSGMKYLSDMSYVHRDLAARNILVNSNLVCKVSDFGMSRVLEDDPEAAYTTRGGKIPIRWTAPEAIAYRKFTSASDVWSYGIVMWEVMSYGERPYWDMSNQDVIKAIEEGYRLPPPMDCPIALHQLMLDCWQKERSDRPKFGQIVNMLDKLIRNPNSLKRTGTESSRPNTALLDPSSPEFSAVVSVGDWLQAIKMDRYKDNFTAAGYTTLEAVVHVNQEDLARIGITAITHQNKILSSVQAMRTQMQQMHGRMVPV
pIC50: −log10 of the molar value.
property measured: pIC50

INSERT INTO results (compound, measured_value) VALUES
  ('CCc1nc(C(N)=O)c(Nc2ccc(N3CCC(Nc4ccccc4)CC3)c(OC)c2)nc1NC1CCOC(C(O)CO)C1 (stereo not shown) [FLIN-4]', '< 5.00');

---

# measured target: BTK (Homo sapiens, UniProt Q06187)
property measured: IC50

INSERT INTO measurements (molecule, property_measured, measured_value) VALUES
  ('CCc1nc(C(N)=O)c(Nc2ccc(N3CCC(Nc4ccccc4)CC3)c(OC)c2)nc1NC1CCOC(C(O)CO)C1 (stereo not shown)', 'IC50', '> 10 µM');

---

# measured target: CDK1 (Homo sapiens)
# Sequence (P06493 whole entry): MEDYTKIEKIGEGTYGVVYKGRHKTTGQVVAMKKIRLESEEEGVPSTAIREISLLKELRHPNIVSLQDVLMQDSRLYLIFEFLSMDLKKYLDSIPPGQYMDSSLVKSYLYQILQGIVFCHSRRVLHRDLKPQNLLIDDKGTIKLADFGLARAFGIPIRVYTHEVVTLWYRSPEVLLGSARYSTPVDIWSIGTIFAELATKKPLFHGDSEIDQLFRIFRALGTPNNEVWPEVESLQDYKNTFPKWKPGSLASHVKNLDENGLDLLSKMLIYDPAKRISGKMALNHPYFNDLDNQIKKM
# Sequence (P14635 whole entry partner): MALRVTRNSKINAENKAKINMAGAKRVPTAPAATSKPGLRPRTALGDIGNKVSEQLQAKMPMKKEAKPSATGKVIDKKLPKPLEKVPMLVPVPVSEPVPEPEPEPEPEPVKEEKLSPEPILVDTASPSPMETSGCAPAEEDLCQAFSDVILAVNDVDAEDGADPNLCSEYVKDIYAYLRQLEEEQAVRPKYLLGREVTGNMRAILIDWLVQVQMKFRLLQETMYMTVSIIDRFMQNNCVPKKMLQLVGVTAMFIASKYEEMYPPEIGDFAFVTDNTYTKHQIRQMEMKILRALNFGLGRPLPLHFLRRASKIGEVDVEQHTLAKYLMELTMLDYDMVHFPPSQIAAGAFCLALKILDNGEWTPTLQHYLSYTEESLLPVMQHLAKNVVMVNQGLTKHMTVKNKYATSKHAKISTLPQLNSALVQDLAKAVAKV
property measured: IC50

INSERT INTO measurements (compound, property_measured, measured_value) VALUES
  ('CCc1nc(C(N)=O)c(Nc2ccc(N3CCC(Nc4ccccc4)CC3)c(OC)c2)nc1NC1CCOC(C(O)CO)C1 (stereo not shown) [FLIN-4]', 'IC50', '> 10 µM');

---

# measured target: RAF1 (Homo sapiens, UniProt P04049, Y340D/Y341D)
# Sequence (P04049 306-648 Y340D/Y341D limits assumed): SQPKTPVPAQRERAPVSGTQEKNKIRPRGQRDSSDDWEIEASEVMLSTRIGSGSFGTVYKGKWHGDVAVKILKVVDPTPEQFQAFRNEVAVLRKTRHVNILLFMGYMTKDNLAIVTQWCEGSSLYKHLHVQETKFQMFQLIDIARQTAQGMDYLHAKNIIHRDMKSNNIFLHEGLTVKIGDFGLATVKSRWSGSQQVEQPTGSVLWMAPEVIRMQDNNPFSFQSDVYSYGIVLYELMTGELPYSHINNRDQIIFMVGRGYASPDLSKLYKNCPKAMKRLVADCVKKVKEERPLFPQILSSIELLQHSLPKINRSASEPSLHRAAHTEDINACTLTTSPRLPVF
# assay details: SelectScreen kinase selectivity assay
# run conditions: ten-dose 0.25–128 μM
pIC50: −log10 of the molar value.
property measured: pIC50

INSERT INTO results (molecule, property_measured, measured_value) VALUES
  ('CCc1nc(C(N)=O)c(Nc2ccc(N3CCC(Nc4ccccc4)CC3)c(OC)c2)nc1NC1CCOC(C(O)CO)C1 (stereo not shown) [FLIN-4]', 'pIC50', '< 5.00');

---

# measured target: BMX (Homo sapiens)
# Sequence (P51813 1-675): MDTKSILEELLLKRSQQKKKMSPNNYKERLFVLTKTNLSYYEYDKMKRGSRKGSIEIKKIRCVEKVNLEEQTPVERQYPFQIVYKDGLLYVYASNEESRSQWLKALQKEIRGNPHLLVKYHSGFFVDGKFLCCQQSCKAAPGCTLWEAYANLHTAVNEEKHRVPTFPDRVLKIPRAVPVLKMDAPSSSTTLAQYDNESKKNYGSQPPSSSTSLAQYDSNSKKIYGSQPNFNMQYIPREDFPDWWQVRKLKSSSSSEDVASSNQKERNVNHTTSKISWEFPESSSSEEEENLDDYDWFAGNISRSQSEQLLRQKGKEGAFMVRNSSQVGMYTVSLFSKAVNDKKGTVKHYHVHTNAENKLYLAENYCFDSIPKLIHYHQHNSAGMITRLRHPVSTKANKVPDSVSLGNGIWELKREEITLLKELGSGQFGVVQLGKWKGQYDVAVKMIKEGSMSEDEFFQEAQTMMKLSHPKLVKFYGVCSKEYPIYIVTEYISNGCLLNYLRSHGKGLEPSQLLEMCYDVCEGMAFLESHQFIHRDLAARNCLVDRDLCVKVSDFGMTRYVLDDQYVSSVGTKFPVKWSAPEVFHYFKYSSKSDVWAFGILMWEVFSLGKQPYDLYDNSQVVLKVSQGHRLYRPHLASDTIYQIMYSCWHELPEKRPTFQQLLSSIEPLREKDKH
pIC50: −log10 of the molar value.
property measured: pIC50

INSERT INTO measurements (compound, property_measured, measured_value) VALUES
  ('CCc1nc(C(N)=O)c(Nc2ccc(N3CCC(Nc4ccccc4)CC3)c(OC)c2)nc1NC1CCOC(C(O)CO)C1 (stereo not shown)', 'pIC50', '< 5.00');

---

# measured target: FGFR3 (Homo sapiens, UniProt P22607)
pIC50: −log10 of the molar value.
property measured: pIC50

INSERT INTO measurements (compound, measured_value) VALUES
  ('CCc1nc(C(N)=O)c(Nc2ccc(N3CCC(Nc4ccccc4)CC3)c(OC)c2)nc1NC1CCOC(C(O)CO)C1 (stereo not shown) [FLIN-4]', '< 5.00');

---

# measured target: MET (Homo sapiens)
property measured: IC50

INSERT INTO assay_data (molecule, property_measured, measured_value) VALUES
  ('CCc1nc(C(N)=O)c(Nc2ccc(N3CCC(Nc4ccccc4)CC3)c(OC)c2)nc1NC1CCOC(C(O)CO)C1 (stereo not shown)', 'IC50', '> 10 µM');

---

# measured target: DDR1 (Homo sapiens, UniProt Q08345)
pIC50: −log10 of the molar value.
property measured: pIC50

INSERT INTO results (compound, measured_target, measured_value) VALUES
  ('CCc1nc(C(N)=O)c(Nc2ccc(N3CCC(Nc4ccccc4)CC3)c(OC)c2)nc1NC1CCOC(C(O)CO)C1 (stereo not shown)', 'DDR1 (Homo sapiens, UniProt Q08345)', '< 5.00');

---

Kd by entry:
# measured target: FLT3-ITD (Homo sapiens, UniProt P36888, ITD)
# Sequence (P36888 27-993): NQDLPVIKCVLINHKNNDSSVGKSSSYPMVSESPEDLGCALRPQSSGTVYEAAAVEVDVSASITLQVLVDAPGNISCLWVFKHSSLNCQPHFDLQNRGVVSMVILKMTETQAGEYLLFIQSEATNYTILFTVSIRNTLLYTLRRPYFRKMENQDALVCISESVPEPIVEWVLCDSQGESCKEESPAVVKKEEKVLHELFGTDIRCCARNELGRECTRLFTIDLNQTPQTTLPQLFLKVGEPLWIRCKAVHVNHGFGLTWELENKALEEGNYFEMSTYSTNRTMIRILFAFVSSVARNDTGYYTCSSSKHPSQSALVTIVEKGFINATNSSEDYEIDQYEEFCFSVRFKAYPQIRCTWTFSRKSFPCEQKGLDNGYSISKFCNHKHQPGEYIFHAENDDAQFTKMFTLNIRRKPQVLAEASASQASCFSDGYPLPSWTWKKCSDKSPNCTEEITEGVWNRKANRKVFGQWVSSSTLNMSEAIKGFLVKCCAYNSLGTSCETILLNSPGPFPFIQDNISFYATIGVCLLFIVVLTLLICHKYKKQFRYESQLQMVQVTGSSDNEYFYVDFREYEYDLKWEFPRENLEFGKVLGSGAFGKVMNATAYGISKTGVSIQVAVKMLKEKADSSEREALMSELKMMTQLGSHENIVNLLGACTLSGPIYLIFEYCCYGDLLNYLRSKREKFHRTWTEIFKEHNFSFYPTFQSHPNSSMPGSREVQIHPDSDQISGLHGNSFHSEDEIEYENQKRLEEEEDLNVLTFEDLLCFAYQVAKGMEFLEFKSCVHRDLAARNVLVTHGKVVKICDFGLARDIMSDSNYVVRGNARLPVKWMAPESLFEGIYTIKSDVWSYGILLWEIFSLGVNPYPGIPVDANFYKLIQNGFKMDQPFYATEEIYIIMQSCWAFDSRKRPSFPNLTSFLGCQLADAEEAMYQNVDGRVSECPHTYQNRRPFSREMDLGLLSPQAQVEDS
# assay details: Microscale thermophoresis (MST) binding affinity
# run conditions: 50 mM Tris, 230 mM NaCl, pH 7.0, labeled protein 50 nM
property measured: Kd (nM)

INSERT INTO measurements (compound, measured_target, measured_value) VALUES
  ('CCc1nc(C(N)=O)c(Nc2ccc(N3CCC(NC(CC)CC)CC3)c(OC)c2)nc1NC1CCOC(C(O)CO)C1 (stereo not drawn)', 'FLT3-ITD (Homo sapiens, UniProt P36888, ITD)', 5.26),
  ('CCCNC1CCN(c2ccc(Nc3nc(NC4CCOC(C(O)CO)C4)c(CC)nc3C(N)=O)cc2OC)CC1 (stereo not drawn)', 'FLT3-ITD (Homo sapiens, UniProt P36888, ITD)', 12.5),
  ('CCc1nc(C(N)=O)c(Nc2ccc(N3CCC(Nc4ccccc4)CC3)c(OC)c2)nc1NC1CCOC(C(O)CO)C1 (stereo not drawn)', 'FLT3-ITD (Homo sapiens, UniProt P36888, ITD)', 0.95),
  ('CCc1nc(C(N)=O)c(Nc2ccc(N3CCC(NC4CC4)CC3)c(OC)c2)nc1NC1CCOC(C(O)CO)C1 (stereo not drawn)', 'FLT3-ITD (Homo sapiens, UniProt P36888, ITD)', 8.74),
  ('CCc1nc(C(N)=O)c(Nc2ccc(N3CCC(NC4CCCCC4)CC3)c(OC)c2)nc1NC1CCOC(C(O)CO)C1 (stereo not drawn)', 'FLT3-ITD (Homo sapiens, UniProt P36888, ITD)', 2.19),
  ('CCc1nc(C(N)=O)c(Nc2ccc(N3CCC(NC4CCCC4)CC3)c(OC)c2)nc1NC1CCOC(C(O)CO)C1 (stereo not drawn)', 'FLT3-ITD (Homo sapiens, UniProt P36888, ITD)', 3.62);

Taken from paper PMC11830721.
